Molecular target: T1, human PD-L1 on cells (human, UniProt Q9NZQ7 19-290)
T1 construct: Endogenous on MDA-MB-231 cells or transfected into HEK293FF cells (Sino Biological plasmid); the assay field says which; also called native PD-L1 on MDA-MB-231 cells; PD-L1 expressing MDA-MB-231 cells
T1 sequence (Q9NZQ7 19-290 limits assumed): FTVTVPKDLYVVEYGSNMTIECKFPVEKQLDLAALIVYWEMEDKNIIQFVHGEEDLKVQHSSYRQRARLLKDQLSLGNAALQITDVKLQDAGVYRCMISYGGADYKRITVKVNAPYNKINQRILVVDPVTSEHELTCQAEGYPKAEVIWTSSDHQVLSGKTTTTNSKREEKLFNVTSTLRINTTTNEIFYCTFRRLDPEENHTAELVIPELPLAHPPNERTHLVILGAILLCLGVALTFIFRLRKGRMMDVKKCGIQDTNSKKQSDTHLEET
Assay: flow cytometry on MDA-MB-231 cells, Krebs buffer, pH 6
Experimental: Anti-PD-L1 affinity matured Fabs were tested for their ability to bind to native PD-L1 in a cell line, (MDA-MB-231 cells) in a buffer resembling the tumor microenvironment (Krebs-lactate).
MEASURED_PROPERTY: pEC50
The read-out pEC50 is expressed as -log10 of concentration in moles per litre.

Item: Fab 8G08 (Fab, V domains shown, Purified Fab prepared from IgG with the Pierce kit; also called 8G08 Fab) VH: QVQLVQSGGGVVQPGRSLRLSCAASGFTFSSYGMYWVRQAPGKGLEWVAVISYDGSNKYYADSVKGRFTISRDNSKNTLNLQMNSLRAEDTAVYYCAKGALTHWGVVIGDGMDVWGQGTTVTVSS VL: NFMLTQPHSVSESPGKTVTISCISNDVPASGHYHRWYQQRPGSSPTTVIYEDDQRPSGVPDRFSGSIDSSSNSASLTISGLKTEDEADYYCQSFDSTNPWVFGGGTKLTVL | pEC50: 8.80

// pEC50 lookup, binder = Fab 8D04 (Fab, V domains shown, Purified Fab prepared from IgG with the Pierce kit; also called 8D04 Fab) VH: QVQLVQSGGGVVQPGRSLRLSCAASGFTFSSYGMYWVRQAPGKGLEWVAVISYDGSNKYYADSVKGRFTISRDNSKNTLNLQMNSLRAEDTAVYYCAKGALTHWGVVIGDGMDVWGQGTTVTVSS VL: NFMLTQPHSVSESPGKTVTISCRGTGSSFHHKYVRWYQQRPGSSPTTVIYEDDQRPSGVPDRFSGSIDSSSNSASLTISGLKTEDEADYYCQSFDSTNPWVFGGGTKLTVL , result: 7.87

Please fill in: pEC50 reported for Fab 8A04 (Fab, V domains shown, Purified Fab prepared from IgG with the Pierce kit; also called 8A04 Fab) VH: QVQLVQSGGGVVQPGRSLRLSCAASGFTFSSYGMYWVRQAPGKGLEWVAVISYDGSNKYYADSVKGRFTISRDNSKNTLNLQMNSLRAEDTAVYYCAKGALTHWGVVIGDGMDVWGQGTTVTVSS VL: NFMLTQPHSVSESPGKTVTISCMRTGTGNKGHYTRWYQQRPGSSPTTVIYEDDQRPSGVPDRFSGSIDSSSNSASLTISGLKTEDEADYYCQSFDSTNPWVFGGGTKLTVL = 8.67
